Measured values drawn from patent US20160185837A1 for this set.

Target or test system: T1, human glucagon receptor (GCGr) (Homo sapiens, UniProt P47871)
T1 construct: expressed in transfected cells; host or cells: HEK293s or CHO cells
T1 sequence (P47871 26-477): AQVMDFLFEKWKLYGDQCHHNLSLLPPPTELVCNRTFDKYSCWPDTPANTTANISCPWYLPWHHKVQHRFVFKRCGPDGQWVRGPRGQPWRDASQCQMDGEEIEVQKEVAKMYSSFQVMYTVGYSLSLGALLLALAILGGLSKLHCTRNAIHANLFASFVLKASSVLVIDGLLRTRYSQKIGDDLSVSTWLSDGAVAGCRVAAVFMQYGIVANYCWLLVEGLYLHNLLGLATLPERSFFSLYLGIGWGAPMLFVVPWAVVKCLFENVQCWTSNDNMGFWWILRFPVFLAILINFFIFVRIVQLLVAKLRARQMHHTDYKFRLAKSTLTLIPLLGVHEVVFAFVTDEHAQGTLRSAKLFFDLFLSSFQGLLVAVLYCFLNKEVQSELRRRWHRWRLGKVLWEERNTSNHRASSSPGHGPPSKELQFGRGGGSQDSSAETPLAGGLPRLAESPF
Procedure details: BSA-cAMP assay, cells expressing human glucagon receptor
Format: cell-based
Experimental setup: batch 1 unless a batch is given, read-out: cAMP activity hGCGr (EC50)
pEC50: −log10 of the molar value.

Molecule | pEC50
IP246: Fc fusion, IgG1-TM, SEQ ID NO:116; agonist peptide YSEGTFTSDYSKLLEGQAAKLFIEWLVKGP (protein, also: Fc fusion, IgG1-TM, agonist peptide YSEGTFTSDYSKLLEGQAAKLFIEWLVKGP) YSEGTFTSDYSKLLEGQAAKLFIEWLVKGPAAAGGSGSTASSGSGSATGGGGAATHTCPPCPAPEF | < 5.85
IP209 (protein, /note=“Description of Artificial Sequence Synthetic Peptide-linker-hinge polypeptide”) YSEGTFTSDYSSYMERQAIDEFIAWLLKGGAAAGGSGSTASSGSGSATGGGGAATHTCPPCPAPEF | < 5.20
IP203 (protein, /note=“Description of Artificial Sequence Synthetic Peptide-linker-hinge polypeptide”) HGEGTFTSDVSSYLEGQAAKEFIAWLVKGGAAAGGSGSTASSGSGSATGGGGAATHTCPPCPAPEF | < 6.19
